This collection of values is drawn from the NIST ThermoML archive (doi:10.1016/j.jct.2015.12.025).

Each record here notes measured refractive index.
# Assay Summary: refractive index (Na D-line) (dimensionless)
# Condition Context: 308.15 K; 102 kPa; Liquid; Standard Abbe refractometry
Would you mind answering with just the numeric figure?

Entry C[Si]1(CCC(F)(F)F)O[Si](C)(CCC(F)(F)F)O[Si](C)(CCC(F)(F)F)O1 (stereo not given) needs its refractive index filled in; supply it. 1.36011

Recall and state the measured refractive index for "COc1ccccc1" . 1.50865

For the compound "CCc1ccccc1" , give its reported refractive index. 1.4876

Input "CC(C)(C)c1ccccc1" , output reported refractive index. 1.48509

State, in one line, measured refractive index of "O=[N+]([O-])c1ccccc1" 1.545

###

# Condition Context: 323.15 K; 102 kPa; Liquid; Vibrating tube method
Assay Metric: mass density (kg/m3)
Reply with just the number (in kg/m3).

# Compound, mass density (kg/m3)
measured = [
    ("COc1ccccc1", 965.73),
    ("CC(C)(C)c1ccccc1", 841.72),
    ("O=[N+]([O-])c1ccccc1", 1173.26),
    ("CCc1ccccc1", 840.28),
]

Below: the item to evaluate.
Output measured mass density for this item: C[Si]1(CCC(F)(F)F)O[Si](C)(CCC(F)(F)F)O[Si](C)(CCC(F)(F)F)O1 (stereo not given) 1216.99

###

# Assay Summary: refractive index (Na D-line) (dimensionless)
# Condition Context: 323.15 K; 102 kPa; Liquid; Standard Abbe refractometry
± gives the expanded uncertainty stated by the source.
Assay Metric: refractive index

# Compound, refractive index
data = [
    ("CC(C)(C)c1ccccc1", "1.47754 ± 0.00035"),
    ("COc1ccccc1", "1.50073 ± 0.00035"),
    ("CCc1ccccc1", "1.47944 ± 0.00035"),
]

Read the entry "O=[N+]([O-])c1ccccc1" and write its reported refractive index. 1.53757 ± 0.00035

Give refractive index for the following compound: C[Si]1(CCC(F)(F)F)O[Si](C)(CCC(F)(F)F)O[Si](C)(CCC(F)(F)F)O1 (stereo not given) 1.35407 ± 0.00035

###

Measured refractive index, listed per entry for reference.
# Assay Summary: refractive index (Na D-line) (dimensionless)
# Condition Context: 298.15 K; 102 kPa; Liquid; Standard Abbe refractometry
Simply state the number, no unit and no words.

Please review the following examples before continuing.
# Molecule, Assay Metric, Endpoint Value
data = [
    ("CC(C)(C)c1ccccc1 [(1,1-dimethylethyl)benzene]", "refractive index", 1.49009),
    ("O=[N+]([O-])c1ccccc1 [nitrobenzene]", "refractive index", 1.54992),
    ("COc1ccccc1 [anisole]", "refractive index", 1.5146),
]

Let us move to another entry and its refractive index.
Supply recorded refractive index for CCc1ccccc1 [ethylbenzene] here. 1.49301

###

# Condition Context: 313.15 K; 102 kPa; Liquid; Vibrating tube method
Reported mass density by item:
I only need the number, in kg/m3, no unit after it.

Previously resolved entries follow.
# Compound, Endpoint Value
records = [
    ("CCc1ccccc1", 849.29),
    ("O=[N+]([O-])c1ccccc1", 1183.21),
    ("CC(C)(C)c1ccccc1", 849.98),
]

Please give the documented mass density of C[Si]1(CCC(F)(F)F)O[Si](C)(CCC(F)(F)F)O[Si](C)(CCC(F)(F)F)O1 (stereo not given) 1230.05

State its mass density: "COc1ccccc1" 975.25

###

# Condition Context: 308.15 K; 102 kPa; Liquid; Vibrating tube method
Quick rule for you: mass density under 1000 kg/m3 gets 1, anything else gets -1.

Below, 3 compounds whose answers are already recorded.
# Compound, Label Class
data = [
    ("O=[N+]([O-])c1ccccc1 [nitrobenzene]", -1),
    ("CCc1ccccc1 [ethylbenzene]", 1),
    ("C[Si]1(CCC(F)(F)F)O[Si](C)(CCC(F)(F)F)O[Si](C)(CCC(F)(F)F)O1 (stereo not given)", -1),
]

Is 1000 kg/m3 strictly greater than the compound's reported mass density? compound: CC(C)(C)c1ccccc1 [(1,1-dimethylethyl)benzene] 1

###

# Assay Summary: refractive index (Na D-line) (dimensionless)
# Condition Context: 318.15 K; 102 kPa; Liquid; Standard Abbe refractometry
Assay Metric: refractive index
Response field accepts a number only; no unit should be typed.

# Line Notation, refractive index
data = [
    ("CCc1ccccc1", 1.48217),
    ("O=[N+]([O-])c1ccccc1", 1.54005),
    ("COc1ccccc1", 1.50341),
]

Turning now to a further molecule:
For the molecule "CC(C)(C)c1ccccc1" , report refractive index. 1.48007
